// provenance: patent US8614227B2

# assay-details: Pharmacokinetics in male beagle dogs after a single oral dose (plasma Compound 1)
# conditions: dog, 10 mg/kg, T1/2, dog 302, single oral 10 mg/kg dose, plasma Compound 1
measurement-kind: half-life (h)
Hi! Could you send only the number? It should be in h, unit omitted.

In: # input compound: "COc1ccc2c(c1OCc1ccccc1)C[C@@H](C(=O)[O-])N(C(=O)C(c1ccccc1)c1ccccc1)C2.[Na+]" ; wanted: its half-life
Out: 2.73

---

# assay-details: in vivo
# conditions: male, beagle, dog, po, 10 mg/kg, median Tmax
measurement-kind: Tmax (h)
Hi! Could you send only the number? It should be in h, unit omitted.

In: # input compound: COc1ccc2c(c1OCc1ccccc1)C[C@@H](C(=O)O)N(C(=O)C(c1ccccc1)c1ccccc1)C2 [Compound 1] ; wanted: its Tmax
Out: 2
